Molecular target: F36L mutant FKBP (Homo sapiens, UniProt P62942, F37L)
Sequence (P62942 2-108 F37L): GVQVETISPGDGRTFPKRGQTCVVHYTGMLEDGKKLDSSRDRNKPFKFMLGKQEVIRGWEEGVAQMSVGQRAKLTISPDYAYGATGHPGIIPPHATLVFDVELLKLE
Assay: Competitive Binding FP Assay
Conditions: read-out: FKBPF36L binding affinity IC50
recorded-metric: IC50 (nM)
Give the value in nM but do not write nM after it.

Exam item: Entry CC[C@H](C(=O)N1CCCC[C@H]1C(=O)O[C@H](CCc1ccc(OC)c(OC)c1)c1cccc(OCC(=O)O)c1)c1cc(OC)c(OC)c(OC)c1 [AP1867] has what IC50?
Marked response: 6.2

###

Molecular target: mutant (F36V) FKBP
Experiment: Competitive Binding FP Assay
Parameters: species or system human
Conditions: Synthetic Monomers table; normalized to value of FK506 run in the same experiment; read-out: F36V IC50
The label criterion met is reserved for IC50 strictly under 200 nM; criterion not met covers values equal to or above it.

Solved entries:
INSERT INTO measurements (compound, experimental_target, discrete_label) VALUES
  ('COc1ccc(CC[C@@H](OC(=O)[C@@H]2CCCCN2C(=O)C(c2ccccc2)c2ccccc2)c2cccc(OCC(=O)O)c2)cc1OC', 'mutant (F36V) FKBP', 'criterion not met'),
  ('COc1ccc(CC[C@@H](OC(=O)[C@@H]2CCCCN2C(=O)[C@H](C)c2ccccc2)c2cccc(OCC(=O)O)c2)cc1OC', 'mutant (F36V) FKBP', 'criterion not met'),
  ('CC[C@@H](C(=O)N1CCCC[C@H]1C(=O)O[C@H](CCc1ccc(OC)c(OC)c1)c1cccc(OCC(=O)O)c1)c1ccccc1', 'mutant (F36V) FKBP', 'criterion met'),
  ('COc1ccc(CC[C@@H](OC(=O)[C@@H]2CCCCN2C(=O)[C@@H](C)c2ccccc2)c2cccc(OCC(=O)O)c2)cc1OC', 'mutant (F36V) FKBP', 'criterion met'),
  ('COc1ccc(CC[C@@H](OC(=O)[C@@H]2CCCCN2C(=O)Cc2ccccc2)c2cccc(OCC(=O)O)c2)cc1OC', 'mutant (F36V) FKBP', 'criterion not met');

Exam item: Answer whether the compound `CCC(C)(C)C(=O)C(=O)N1CCCC[C@H]1C(=O)O[C@H](CCc1ccc(OC)c(OC)c1)c1cccc(OCC(=O)O)c1` has IC50 strictly less than 200 nM
Marked response: criterion met

Exam item: Answer whether the compound COc1ccc(CCC(OC(=O)C2CCCCN2C(=O)C(c2ccccc2)C(C)C)c2cccc(OCC(=O)O)c2)cc1OC (mixture of isomers) has IC50 strictly less than 200 nM
Marked response: criterion met

Exam item: Answer whether the compound COc1ccc(CCC(OC(=O)C2CCCCN2C(=O)C(c2ccccc2)C2CCCC2)c2cccc(OCC(=O)O)c2)cc1OC (mixture of isomers) has IC50 strictly less than 200 nM
Marked response: criterion met

Exam item: Answer whether the compound CCC(C(=O)N1CCCC[C@H]1C(=O)O[C@H](CCc1ccc(OC)c(OC)c1)c1cccc(OCC(=O)O)c1)c1ccc2c(c1)OCO2 (stereo partly shown) has IC50 strictly less than 200 nM
Marked response: criterion met

Exam item: Answer whether the compound COc1ccc(CCC(OC(=O)C2CCCCN2C(=O)C(Cc2ccccc2)c2ccccc2)c2cccc(OCC(=O)O)c2)cc1OC (mixture of isomers) has IC50 strictly less than 200 nM
Marked response: criterion met
